- assay: Caspofungin plasma concentrations and pharmacokinetics in lung transplant recipients with and without ECMO
- Assay type: in vivo, human
- study conditions: human, in vivo, iv, Control group B (n = 7, non-ECMO); 50 mg i.v. every 24 h; 2nd dose; median (IQR); read-out: AUC24–48
measure name: AUC (µg·h/mL)
Answer format: numeric, µg·h/mL implied, no suffix.

Request the reported AUC associated with CC[C@H](C)C[C@H](C)CCCCCCCCC(=O)N[C@H]1C[C@@H](O)[C@@H](NCCN)NC(=O)[C@@H]2[C@@H](O)CCN2C(=O)[C@H]([C@H](O)CCN)NC(=O)[C@H]([C@H](O)[C@@H](O)c2ccc(O)cc2)NC(=O)[C@@H]2C[C@@H](O)CN2C(=O)[C@H]([C@@H](C)O)NC1=O
156

----------
- assay: Caspofungin plasma concentrations and pharmacokinetics in lung transplant recipients with and without ECMO
- Format: in vivo, human
- study conditions: human, plasma, iv, 50 mg, Control group B (n = 7, non-ECMO); 50 mg i.v. every 24 h; 2nd dose; plasma, UPLC-MS/MS; median (IQR); read-out: Cmin, trough plasma concentration
measure name: level at 24 h (ng/mL)
Just the number please, in ng/mL, no unit attached.

For the compound shown here, CC[C@H](C)C[C@H](C)CCCCCCCCC(=O)N[C@H]1C[C@@H](O)[C@@H](NCCN)NC(=O)[C@@H]2[C@@H](O)CCN2C(=O)[C@H]([C@H](O)CCN)NC(=O)[C@H]([C@H](O)[C@@H](O)c2ccc(O)cc2)NC(=O)[C@@H]2C[C@@H](O)CN2C(=O)[C@H]([C@@H](C)O)NC1=O [caspofungin] , give the reported level at 24 h.
3500

----------
- assay: Caspofungin plasma concentrations and pharmacokinetics in lung transplant recipients with and without ECMO
- Format: in vivo, human
- study conditions: human, plasma, iv, 50 mg, Control group A (n = 12, self-control after ECMO weaning, 3rd dose); 50 mg i.v. every 24 h; plasma, UPLC-MS/MS; median (IQR); read-out: Cmin, trough plasma concentration
measure name: level at 24 h
Don't forget the unit after the value.

Give the measured level at 24 h of CC[C@H](C)C[C@H](C)CCCCCCCCC(=O)N[C@H]1C[C@@H](O)[C@@H](NCCN)NC(=O)[C@@H]2[C@@H](O)CCN2C(=O)[C@H]([C@H](O)CCN)NC(=O)[C@H]([C@H](O)[C@@H](O)c2ccc(O)cc2)NC(=O)[C@@H]2C[C@@H](O)CN2C(=O)[C@H]([C@@H](C)O)NC1=O [caspofungin] .
3200 ng/mL

----------
- assay: Caspofungin plasma concentrations and pharmacokinetics in lung transplant recipients with and without ECMO
- Format: in vivo, human
- study conditions: human, in vivo, iv, Control group A (n = 12, self-control after ECMO weaning, 3rd dose); 50 mg i.v. every 24 h; median (IQR); read-out: CL, clearance (converted)
measure name: clearance (mL/min)
Only the number, expressed in mL/min, is required.

Recorded clearance for CC[C@H](C)C[C@H](C)CCCCCCCCC(=O)N[C@H]1C[C@@H](O)[C@@H](NCCN)NC(=O)[C@@H]2[C@@H](O)CCN2C(=O)[C@H]([C@H](O)CCN)NC(=O)[C@H]([C@H](O)[C@@H](O)c2ccc(O)cc2)NC(=O)[C@@H]2C[C@@H](O)CN2C(=O)[C@H]([C@@H](C)O)NC1=O , please?
5.17
